Parameter pKd: see the listing below.
# measurement target: T1, DOT1L (854-925) (human) (UniProt Q8TEK3)
# T1 sequence: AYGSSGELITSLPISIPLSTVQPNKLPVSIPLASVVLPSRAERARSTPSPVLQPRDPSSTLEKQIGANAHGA
# measurement notes: SPR; DOT1L construct immobilised on CM5 chip
pKd: −log10 of the molar value.

binder: ENL (489-559), recombinant C-terminal domain of ENL (protein) GTYDKAYTDELVELHRRLMALRERNVLQQIVNLIEETGHFNVTNTTFDFDLFSLDETTVRKLQSCLEAVAT
pKd: 7.05
--
binder: AF9 (497-568), recombinant C-terminal domain of human AF9 (protein) GECDKAYLDELVELHRRLMTLRERHILQQIVNLIEETGHFHITNTTFDFDLCSLDKTTVRKLQSYLETSGTS
pKd: 7.38
